Test system: Malme-3M
ASSAY TEXT: NCI tumour cell line growth inhibition, 48 h
Active and inactive are the calls of the source. Cut-off read from the data, not from the text of the source: active = GI50 up to about 1.1 µM and inactive = higher. Numbered stars: 1 amine (or outer) side, 2 acyl side, 3 side chain; on linkers, the order of the positions; unused ones are H or OH. Square brackets hold non-standard residues; d marks the D form. Peptide text beside a SMILES is read from it. X55 = CC[C@H](C)[C@H](OC(=O)[C@@H](C)[C@@H](CC)N[*:1])C(=O)[*:2]; X31 = C[C@H](N[*:1])C(=O)C(C)(C)C(=O)[*:2]; NMeY = CN[C@@H](Cc1ccc(O)cc1)C(=O)O; NMeL = CN[C@@H](CC(C)C)C(=O)O; NMeV = CN[C@H](C(=O)O)C(C)C
Measured GI50, listed per entry.
EXPERIMENTAL READOUT: GI50

# COMPOUND, REPORTED VALUE
records = [
    ("CC1=NN(c2ccccc2)C(=O)/C1=C\\c1ccc([N+](=O)[O-])cc1", "23.9 µM (inactive)"),
    ("COc1cc(C(SCc2ccccc2)SCc2ccccc2)ccc1O", "> 10 µM (inactive)"),
    ("CC(=O)Nc1ccc2nc(-c3ccccn3)c(-c3ccccn3)nc2c1", "> 100 µM (inactive)"),
    ("CC[C@H](C)[C@@H]1OC(=O)[C@@H](C)[C@@H](CC)NC(=O)[C@H](C)NC(=O)C(C)(C)C(=O)[C@H](C)NC(=O)[C@H](Cc2ccc(OC)cc2)N(C)C(=O)[C@H](C(C)C)N(C)C(=O)CNC(=O)[C@H](CC(C)C)N(C)C(=O)CNC1=O [DOLASTATIN 11] (cyclo(A[X55]G[NMeL]G[NMeV][NMeY](Me)[X31]))", "0.13 µM (active)"),
    ("O=C(CC(=O)C1CCOC1=O)C(=O)Nc1ccc(Cl)cc1Cl (stereo unspecified)", "> 100 µM (inactive)"),
    ("CN1C(=O)C(c2c[nH]c3ccccc23)N(C)C(=O)C1c1c[nH]c2ccccc12 (stereo unspecified)", "> 100 µM (inactive)"),
    ("CCOP12(OCC)NC(=O)OC1(C(F)(F)F)c1ccccc1O2 (stereo unspecified)", "> 100 µM (inactive)"),
    ("N#C/C(=C\\c1ccccc1)C(NO)Nc1ccccc1 (stereo unspecified)", "> 100 µM (inactive)"),
    ("CC1CN=C(Nc2cccc(F)c2)S1 (stereo unspecified)", "> 100 µM (inactive)"),
    ("N#CC(/N=N/c1ccccc1C(=O)O)C(N)=O (stereo unspecified)", "91.2 µM (inactive)"),
    ("CC1C2CC(C(S(=O)(=O)O)C2=O)C1(C)C (stereo unspecified)", "> 100 µM (inactive)"),
]

###

Test system: TK-10
ASSAY TEXT: NCI tumour cell line growth inhibition, 48 h
Active and inactive are the calls of the source. Rule as the data show it: active = GI50 up to about 1.1 µM and inactive = higher.

# CPD SMILES, TARGET OF ASSAY, GI50
data = [
    ("CC1=NN(C(=O)c2ccc(Cl)cc2)C(=O)/C1=C/c1ccco1", "TK-10", "> 100 µM (inactive)"),
    ("CSc1cc(Cl)c(C(=O)Nc2ccccc2)cc1S(=O)(=O)n1ccnc1O", "TK-10", "> 100 µM (inactive)"),
    ("Cc1cc2c(C(C)C)c(O)c(O)c(/C=N/c3cc(C(F)(F)F)ccc3Cl)c2c(O)c1-c1c(C)cc2c(C(C)C)c(O)c(O)c(/C=N/c3cc(C(F)(F)F)ccc3Cl)c2c1O", "TK-10", "60.7 µM (inactive)"),
]

###

Measured GI50, listed per entry.
Tested on: OVCAR-5
ASSAY TEXT: NCI tumour cell line growth inhibition, 48 h
Activity calls are given as the source filed them. Rule as the data show it: active = GI50 up to about 1.1 µM and inactive = higher.

# COMPOUND, TARGET OF ASSAY, GI50
data = [
    ("O=C1/C(=C/c2ccco2)N=C(c2ccccc2)N1c1cc2cc(Sc3ccccc3)ccc2[nH]1", "OVCAR-5", "21.6 µM (inactive)"),
    ("CC1=CC(C2/C(=N/O)C=C(C)CC2(C)C)C(O)C(C)(C)C1 (stereo not given)", "OVCAR-5", "19.1 µM (inactive)"),
    ("CCOC(=O)C1=CC(C)(C(=O)OCC)Nc2c(nc(OC)n(C)c2=O)N1 (stereo not given)", "OVCAR-5", "> 10 µM (inactive)"),
    ("CCN(CC)CCCC(C)Nc1c(Sc2cnc3cc(Cl)ccc3c2NC(C)CCCN(CC)CC)cnc2cc(Cl)ccc12 (stereo not given)", "OVCAR-5", "1.73 µM (inactive)"),
    ("N#CCCN(CCC#N)c1ccc(C(/N=N/c2ccc(Cl)cc2)=N\\c2ccccc2)cc1", "OVCAR-5", "12.4 µM (inactive)"),
]

###

Test system: COLO 205
ASSAY TEXT: NCI tumour cell line growth inhibition, 48 h
Active and inactive are the calls of the source. No stated cut-off is given here; in the data, active = GI50 up to about 1.1 µM and inactive = higher.
Measured GI50, listed per entry.

# COMPOUND, GI50
data = [
    ("COC(=O)CC1C(COC(C)=O)OC(n2cc(C)c(=O)[nH]c2=O)C1OC(C)=O (centres undefined)", "> 100 µM (inactive)"),
    ("CCCCCCCCCCCC(=O)C1=C(O)CC(O)CC1=O (centres undefined)", "> 100 µM (inactive)"),
    ("Cc1cc(C)c2c(SCc3ccc(Cl)cc3Cl)nc(N)nc2n1", "34.8 µM (inactive)"),
    ("CCOC(=O)/C(C#N)=C/Nc1c(C)n(C)n(-c2ccccc2)c1=O", "> 100 µM (inactive)"),
]

###

Tested on: OVCAR-8
ASSAY TEXT: NCI tumour cell line growth inhibition, 48 h
Active and inactive are the calls of the source. Rule as the data show it: active = GI50 up to about 1.1 µM and inactive = higher.
EXPERIMENTAL READOUT: GI50

# COMPOUND, REPORTED VALUE
measured = [
    ("O=c1[nH]ncc2[nH]c3c(c12)CCc1ccccc1-3", "33.6 µM (inactive)"),
    ("O=[N+]([O-])c1ccc2c(c1)Sc1ccccc1N2CCCCCl", "> 100 µM (inactive)"),
    ("CCOC(=O)NC(=O)c1cn(-c2ccc(CCOC(=O)CCCCCCCCC(=O)OCCc3ccc(-n4cc(C(=O)NC(=O)OCC)c(=O)[nH]c4=O)cc3)cc2)c(=O)[nH]c1=O", "> 100 µM (inactive)"),
    ("N#CCCN(CCC#N)c1ccc(C(/N=N/c2ccc(Cl)cc2)=N\\c2ccccc2)cc1", "15.1 µM (inactive)"),
    ("COc1c(CC(C)=O)c2ccccc2n1C(C)=O", "> 100 µM (inactive)"),
    ("CC(SC(=O)Nc1ccc(/N=N/c2ccccc2)cc1)C(=O)O (configuration not stated)", "57 µM (inactive)"),
    ("C#Cc1cc(Br)c(OC(=O)C(C)(C)C)c(-c2cc(C#C)cc(Br)c2OC(=O)C(C)(C)C)c1", "65.3 µM (inactive)"),
]

###

Tested on: SK-MEL-5
ASSAY TEXT: NCI tumour cell line growth inhibition, 48 h
Active and inactive are the calls of the source. Cut-off read from the data, not from the text of the source: active = GI50 up to about 1.1 µM and inactive = higher.
Measured GI50, listed per entry.
EXPERIMENTAL READOUT: GI50

# MOLECULE, REPORTED VALUE
data = [
    ("O=[N+]([O-])/C(Cl)=C(/C(Cl)=C(Cl)Cl)N1CCOCC1", "1.65 µM (inactive)"),
    ("C[N+](C)(C)CCC(=O)N1C/C(=C\\c2ccccc2)C(=O)/C(=C/c2ccccc2)C1", "9.95 µM (inactive)"),
    ("Brc1ccccc1/C=C\\C1(c2ccccc2)OCCO1", "15.2 µM (inactive)"),
    ("O=C1c2ccccc2C(=O)c2c(NCC3CO3)cccc21 (stereo not given)", "22.6 µM (inactive)"),
    ("C#Cc1cc(CN(CC(=O)OC(C)(C)C)CC(=O)OC(C)(C)C)nc(CN(CC(=O)OC(C)(C)C)CC(=O)OC(C)(C)C)c1", "3.59 µM (inactive)"),
    ("Cc1cc2c(c3c1c1ccccc1n3C)C(=O)c1ccccc1C2=O", "> 100 µM (inactive)"),
    ("Cc1cc2c(C(C)C)c(O)c(O)c(/C=N/c3cc(C(F)(F)F)ccc3Cl)c2c(O)c1-c1c(C)cc2c(C(C)C)c(O)c(O)c(/C=N/c3cc(C(F)(F)F)ccc3Cl)c2c1O", "23.6 µM (inactive)"),
    ("CC1(C)CCc2ccc(OCCC(=O)O)cc2O1", "> 100 µM (inactive)"),
    ("CN(C)CCNc1ccc2c(=O)n(CCN(C)C)c(=O)n3c4ccc(N)cc4c(=O)c1c23", "0.194 µM (active)"),
    ("COc1ccc(/C=C/c2cnnc3ccccc23)cc1OC", "> 10 µM (inactive)"),
    ("OC1CCCCCCCCCCC1[S+]1CCCC1.O[B-](F)(F)F (stereo not given)", "27.7 µM (inactive)"),
    ("Fc1ccc(/N=C/C=C/Nc2ccc(F)cc2)cc1", "4.84 µM (inactive)"),
    ("Cn1c(=O)[nH]c2sc3c(c2c1=N)CCCC3", "> 75 µM (inactive)"),
    ("Oc1cccc(-c2cc(O)c3cc4c(cc3n2)OCO4)c1", "1.46 µM (inactive)"),
    ("CC(=O)Oc1cc2c(cc1OCC(F)(F)F)[C@H]1CC[C@]3(C)[C@@H](OC(C)=O)CC[C@H]3[C@@H]1CC2=O", "17 µM (inactive)"),
    ("COc1ccc(SCc2cc(OC)ccc2OC)cc1", "16.1 µM (inactive)"),
    ("CCC1C(=O)C(O)[C@H]2[C@@H]3C(O)CC4=CC(=O)CC[C@]4(C)[C@H]3CC[C@]12C (stereo not given in full)", "> 50 µM (inactive)"),
    ("CC(C)/C(Cl)=N\\OC(=O)Nc1ccc(F)c([N+](=O)[O-])c1", "8.43 µM (inactive)"),
    ("CC(=O)c1c2c(cc3c1CC1(Cc4cc5c(cc4C1)CCC5)C3)CCC2", "> 100 µM (inactive)"),
    ("COc1ccc(-c2c(C#N)c(NC(=S)NC(=O)c3ccccc3)nc3c2CCCC3)cc1OC", "34.6 µM (inactive)"),
]
